Parameter: MIC against S. marcescens. Scope: all listed entries.
# Test system: Serratia marcescens
# Method description: MIC against Gram-negative bacteria: Serratia marcescens
# Type: cell-based
# Measurement parameters: Serratia marcescens; 96-well plate, 5×10^5 CFU/mL, 37° C., 10 h
Record the value in µg/mL, omitting the unit from your answer.

Substance | Assay result
PRT1201 (DIDECALRTHTCWNDSACINLAGGFDCLCPSGPSCS; listed as Homo sapiens) | 25
PRT1271 (DTNECSINNGGCQQVCVNTVGSYECQCHPGYKLHWNKKDCV; listed as Homo sapiens) | 12.5
PRT1232 (IGQQCPNMCSGHGSCDHGICRCDQGYQGTECH; listed as Homo sapiens) | 25
PRT1334 (PINPCLRKICHPHAHCTYLGPNRHSCTCQEGYRGDGQVCL; listed as Homo sapiens) | 25
PRT1295 (RTSPCDNFDCQNGAQCIVRINEPICQCLPGYQGEKCE; listed as Homo sapiens) | 12.5
PRT1316 (ELPVCQELRCPQNTQCSAEAPSCRCLPGYTQQGSE; listed as Homo sapiens) | 12.5
PRT1327 (EINPCLENHGGCDKNAECTQTGPNQAACNCLPAYTGDGKVCT; listed as Homo sapiens) | 25
PRT1332 (FGPSCSSVCNCVHGVCNSGLDGDGTCECYSAYTGPKCD; listed as Homo sapiens) | 25

In: Fill in reported MIC against S. marcescens for this entry: PRT1236 (IGDGCIDMCSGHGRCIQGNCVCDEQWGGLYCD; listed as Homo sapiens)
Out: 25

In: Identify the reported MIC against S. marcescens for the following entry. PRT1196 (DVDLCEPSPCRNGARCYNLEGDYYCACPDDFGGKNCS; listed as Homo sapiens)
Out: 50

In: Return MIC against S. marcescens (reported value) for this substance: PRT1239 (TIPICEGPDACQKDEVCVKPGLCRCKPGFFGAHCS; listed as Homo sapiens)
Out: 25

In: Give MIC against S. marcescens for the following substance: PRT1212 (DIDECSGNPCLHGALCENTHGSYHCNCSHEYRGRHCE; listed as Homo sapiens)
Out: 12.5

Where do these numbers come from? They come from patent US9833497B2.
